B1: GLTSCR2 (parent)
chain: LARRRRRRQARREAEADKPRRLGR

# Variants of: B1
# assay.protocol: protein stability index of a GFP-peptide fusion (GPS, HEK-293T) (PSI 1-6); higher = more stable;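 also: lentivirally expressed fusions sorted by FACS into six bins by GFP to DsRed ratio, PSI derived from sequencing read proportions per bin multiplied by bin number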
# measurement.conditions: c terminus: a fixed tail appended
Entries annotated with measured protein stability index
Give the figure only, with no unit attached.

Study these solved cases before continuing.
# var, metric, assay.value
data = [
    ("R6T", "protein stability index", 4.69),
    ("E13H", "protein stability index", 4.13),
    ("L1K", "protein stability index", 4.56),
    ("A2F", "protein stability index", 3.4),
    ("R11L", "protein stability index", 5.4),
    ("G23R", "protein stability index", 4.57),
    ("G23T", "protein stability index", 5.05),
    ("E13C", "protein stability index", 5.01),
]

Respond only with protein stability index recorded for K18Y
4.85

Give the measured protein stability index for E13V
4.35

Recall and state the measured protein stability index for K18R .
5.02

Report protein stability index for Q9N
4.47
